Provenance of the data: paper PMC8006714

System Tested: SARS-CoV-2 M^pro (Severe acute respiratory syndrome coronavirus 2)
Procedure Text: biochemical
Assay type: biochemical
Assay Metric: % Mpro inhibition at 20 µM (%)
// note: answer is a bare numeric in %

Examples with their reported % Mpro inhibition at 20 µM follow.
What measured % Mpro inhibition at 20 µM is associated with O=C(N[C@@H](Cc1ccccc1)C(=O)CCl)OCc1ccccc1 on SARS-CoV-2 M^pro (Severe acute respiratory syndrome coronavirus 2)?
100.0

Also, Cc1ccc(S(=O)(=O)N[C@@H](CCCCN)C(=O)CCl)cc1.Cl please.
88.3

Follow-up entry: CC(=O)OCC1=C(C(=O)[O-])N2C(=O)[C@@H](NC(=O)CCC[C@@H](N)C(=O)[O-])[C@H]2SC1.[Zn+2] [Cephalosporin C zinc salt]
92.3

Further cases:
Provide value of % Mpro inhibition at 20 µM for this record tested with SARS-CoV-2 M^pro (Severe acute respiratory syndrome coronavirus 2): CC(Cc1ccc(O)c(O)c1)C(C)Cc1ccc(O)c(O)c1 (stereo not drawn) [Nordihydroguaiaretic acid]
97.8

Proceed to CCCN1CCc2cccc3c2[C@H]1Cc1ccc(O)c(O)c1-3.Cl
100.0

###

System Tested: SARS-CoV-2 M^pro (Severe acute respiratory syndrome coronavirus 2)
Procedure Text: biochemical
Format: biochemical
Condition Parameters: read-out: % Mpro inhibition at 20 µM
Where a name gives a salt, the structure may show the parent alone.
Param threshold (80%) applies to inhibition at 20 µM; output criterion met when value >= threshold, criterion not met when value < threshold.

The following molecules have reported results that may help.
Has S=C=NCc1ccccc1 [Benzyl isothiocyanate] a recorded inhibition at 20 µM greater than or equal to 80%?
criterion met

How about NC(=O)c1cc[n+](CC2=C(C(=O)[O-])N3C(=O)[C@@H](NC(=O)Cc4cccs4)[C@H]3SC2)cc1 ?
criterion not met

Try this molecule too: NCc1ccccc1CC(=O)N[C@@H]1C(=O)N2C(C(=O)O)=C(CSc3nnnn3CC(=O)O)CS[C@H]12 [Ceforanide]
criterion not met

Here is the next molecule: CC[N+]1(C)CCCC(OC(=O)C(O)(c2ccccc2)c2ccccc2)C1 (stereo not drawn) [Pipenzolate bromide]
criterion met

What would you report for C[n+]1cc2c3c(ccc2c2ccc4cc5c(cc4c21)OCO5)OCO3 [Sanguinarium chloride, Sanguinarine chloride] ?
criterion met

Consider next the molecule CO/N=C(\C(=O)N[C@@H]1C(=O)N2C(C(=O)O)=C(C[N+]3(C)CCCC3)CS[C@H]12)c1csc(N)n1 [Cefepime hydrochloride] in the same way.
criterion not met

Same question for O=C1C=CC(=O)C=C1 please.
criterion met

Same read-out for Oc1ccc2ccccc2c1SSc1c(O)ccc2ccccc12 ?
criterion met

---
Threshold query (inhibition at 20 µM >= 80%) on CC(=O)/N=c1/sc(S(N)(=O)=O)nn1C [Methazolamide]
criterion met

How about this molecule: Oc1cc(O)cc(/C=C/c2ccc(O)c(O)c2)c1
criterion met

Try this molecule too: COc1ccc2c(c[n+](C)c3c4cc5c(cc4ccc23)OCO5)c1OC [Chelerythrine chloride]
criterion met

###

The compounds listed here are annotated with their % Mpro inhibition at 20 µM.
System Tested: SARS-CoV-2 M^pro (Severe acute respiratory syndrome coronavirus 2)
Procedure Text: biochemical
Type: biochemical
Provide the reading as a plain figure in %.

Look up % Mpro inhibition at 20 µM: O=Nc1ccc2oc(=O)ccc2c1 [6-Nitroso-1,2-benzopyrone]
99.5

Okay, and Br.NC1CCc2cc(O)c(O)cc2C1 (racemic) ?
88.3

Also CC(=O)OC[C@H]1O[C@@H]([S-])[C@H](OC(C)=O)[C@@H](OC(C)=O)[C@@H]1OC(C)=O.CCP(CC)CC.[Au+] [Auranofin] ?
100.0

Param item: CO/N=C(\C(=O)N[C@@H]1C(=O)N2C(C(=O)O)=C(CSC(=O)c3ccco3)CS[C@H]12)c1csc(N)n1.Cl [Ceftiofur hydrochloride]
65.0

Entry NC(N)=Nc1ccc2[nH]c3c(c2c1)C[C@@]1(O)[C@H]2Cc4ccc(O)c5c4[C@@]1(CCN2CC1CC1)[C@H]3O5.O=C(O)C(F)(F)F.O=C(O)C(F)(F)F please
99.6

Others:
Give its % Mpro inhibition at 20 µM value. Item: Cc1ccc(S(=O)(=O)N[C@@H](Cc2ccccc2)C(=O)CCl)cc1 [TPCK]
94.1

Also, OC[C@H]1O[C@H]([S-])[C@H](O)[C@@H](O)[C@@H]1O.[Au+] [Aurothioglucose] please.
96.6

Now the compound CCN[C@@H]1C[C@H](N)[C@@H](O[C@H]2OC(CN)=CC[C@H]2N)[C@H](O)[C@H]1O[C@H]1OC[C@](C)(O)[C@H](NC)[C@H]1O.CCN[C@@H]1C[C@H](N)[C@@H](O[C@H]2OC(CN)=CC[C@H]2N)[C@H](O)[C@H]1O[C@H]1OC[C@](C)(O)[C@H](NC)[C@H]1O.O=S(=O)(O)O.O=S(=O)(O)O.O=S(=O)(O)O.O=S(=O)(O)O.O=S(=O)(O)O [Netilmicin sulfate]
89.1

# repeat for O=C1C(SCCO)=C(SCCO)C(=O)c2ccccc21 [NSC 95397]
99.0

Entry to check: [Cl-].[NH3+][Pt-2]([NH3+])([Cl])[n+]1ccccc1 (stereo not shown)
99.6
